System: acetaminophen-induced liver damage
Assay Notes: Effect on acetaminophen-induced liver damage
Format: in vivo, rat
Particulars: male SD rats; 0.5 mmole/kg orally; vs physiological saline control
We use 90% as the dividing line for s-GOT percent inhibition (figure in parentheses): on or above the line is 1, below is 0.

Input line: Given the entry N[C@@H](CCC(=O)N[C@@H](CSC1CC(=O)NC1=O)C(=O)NCC(=O)O)C(=O)O (stereo partly drawn) [R1 = H, R2 R3 = NH, S-[(1,2-Dicarboximido)ethyl]glutathione] , answer whether its s-GOT percent inhibition (figure in parentheses) meets or surpasses 90%.
Output line: 0

Input line: Quick check: does NC(=O)CC(SC[C@H](NC(=O)CC[C@H](N)C(=O)O)C(=O)NCC(=O)O)C(N)=O (stereo partly drawn) [R1 = H, R2 = R3 = NH2, S-(1,2-Dicarbamoylethyl)glutathione] have s-GOT percent inhibition (figure in parentheses) greater than or equal to 90%?
Output line: 0

Input line: For this compound, is measured s-GOT percent inhibition (figure in parentheses) 90% or higher? CCCCOC(=O)CC(SC[C@H](NC(=O)CC[C@H](N)C(=O)O)C(=O)NCC(=O)OC(C)C)C(=O)OCCCC (stereo partly drawn) [R1 = C3 H7, R2 = R3 = OC4 H9]
Output line: 1

Input line: I'd appreciate it if you could say whether CC(C)OC(=O)CNC(=O)[C@H](CSC(CC(N)=O)C(N)=O)NC(=O)CC[C@H](N)C(=O)O (stereo partly drawn) [R1 = C3 H7, R2 = R3 = NH2] has s-GOT percent inhibition (figure in parentheses) at least equal to 90%.
Output line: 0
